# System: RXF 393
# Protocol description: Growth inhibition of human RXF 393 cells incubated for 48 hrs by sulforhodamine B assay
# Assay type: functional
I'd appreciate it if you could supply TGI values for the items below.
One number for each entry, in µM.

In the examples that follow, each entry is paired with its recorded TGI.
smiles_notation=Cc1cc(C)c(NC(=O)c2sc3nc4c(cc3c2N)CN(Cc2ccccc2)CC4)c(C)c1 reported=18.5
smiles_notation=CCc1ccccc1NC(=O)c1sc2nc3c(cc2c1N)C(=O)CCC3 reported=0.777
smiles_notation=CN1CCc2nc3sc(C(N)=O)c(N)c3c(-c3cccs3)c2C1 reported=3.63
smiles_notation=COc1cccc(NC(=O)c2sc3nc4c(cc3c2N)CN(Cc2ccccc2)CC4)c1 reported=12.9

Record `Nc1c(C(=O)Nc2ccccc2)sc2nc3c(cc12)CN(Cc1ccccc1)CC3` . Reported TGI: 54.2

----------
# System: M14
# Protocol description: Growth inhibition of human M14 cells assessed as cell growth at 10 uM incubated for 48 hrs by sulforhodamine B assay relative to control
# Assay type: functional
# Assay conditions: read-out: Activity
I'd be grateful if you could share measured growth at 10 µM for these entries.
One number for each entry, in %.

Examples with their reported growth at 10 µM follow.
smiles_notation=CC(=O)Nc1ccc(S(=O)(=O)n2ccc(-c3ccc4c(c3)CCC(C)(C)O4)n2)cc1 reported=64.7
smiles_notation=COc1ccc(S(=O)(=O)n2ccc(-c3ccc(OC(C)C)cc3)n2)cc1 reported=84.5
smiles_notation=Cc1ccc(NC(=O)c2sc3nc4c(cc3c2N)C(=O)CCC4)cc1C reported=-23
smiles_notation=O=S(=O)(c1ccc(Br)cc1)n1ccc(-c2ccc(OCCCF)cc2)n1 reported=97.1

Batch request: growth at 10 µM per item, same order as input.
1. CC1(C)CCc2cc(-c3ccn(S(=O)(=O)c4ccc(Cl)cc4Cl)n3)ccc2O1
2. CC(=O)c1cccc(NC(=O)c2sc3nc4c(cc3c2N)C(=O)CCC4)c1
3. CC1(C)CCc2cc(-c3ccn(S(=O)(=O)c4ccc(C(F)(F)F)cc4)n3)ccc2O1
4. CC1(C)CCc2cc(-c3ccn(S(=O)(=O)c4ccc(C(C)(C)C)cc4)n3)ccc2O1
5. COc1ccc(-c2ccn(S(=O)(=O)c3ccc(OC)cc3)n2)cc1

Result ::
1. 85.9
2. 100
3. 92.5
4. 91.3
5. 74

Form: compound = `CC1(C)CCc2cc(-c3ccn(S(=O)(=O)c4ccccc4)n3)ccc2O1` ; growth at 10 µM = 61

----------
# Tested on: SF-539
# Protocol description: Growth inhibition of human SF-539 cells incubated for 48 hrs by sulforhodamine B assay
# Type: functional
Assign class by TGI: not lower than 3 µM means 1 (yes); lower than 3 µM means 0 (no).

smiles_notation=Cc1cc(C)c(NC(=O)c2sc3nc4c(cc3c2N)CN(Cc2ccccc2)CC4)c(C)c1 qualitative_label="1 (yes)"
smiles_notation=CN1CCc2nc3sc(C(N)=O)c(N)c3c(-c3cccs3)c2C1 qualitative_label="1 (yes)"
smiles_notation=Nc1c(C(=O)Nc2ccccc2)sc2nc3c(cc12)CN(Cc1ccccc1)CC3 qualitative_label="1 (yes)"
smiles_notation=COc1cccc(NC(=O)c2sc3nc4c(cc3c2N)CN(Cc2ccccc2)CC4)c1 qualitative_label="1 (yes)"

Query :: Confirm if TGI reported for the compound `Cc1cccc(NC(=O)c2sc3nc4c(cc3c2N)C(=O)CCC4)c1` is 3 µM or above.
Result :: 0 (no)

Query :: Check this compound for TGI at or above 3 µM: `CCc1ccccc1NC(=O)c1sc2nc3c(cc2c1N)C(=O)CCC3`
Result :: 0 (no)

----------
I'd appreciate it if you could supply TGI values for the items below.
# Test system: HCT-116
# Protocol description: Growth inhibition of human HCT-116 cells incubated for 48 hrs by sulforhodamine B assay
# Type: functional

// below: answered compounds
smiles_notation=CCc1ccccc1NC(=O)c1sc2nc3c(cc2c1N)C(=O)CCC3 reported="> 100 µM"
smiles_notation=CN1CCc2nc3sc(C(N)=O)c(N)c3c(-c3cccs3)c2C1 reported="> 100 µM"
smiles_notation=COc1cccc(NC(=O)c2sc3nc4c(cc3c2N)CN(Cc2ccccc2)CC4)c1 reported="> 100 µM"
smiles_notation=Cc1cccc(NC(=O)c2sc3nc4c(cc3c2N)C(=O)CCC4)c1 reported="> 100 µM"
smiles_notation=Cc1ccc(NC(=O)c2sc3nc4c(cc3c2N)C(=O)CCC4)cc1C reported="> 100 µM"
smiles_notation=Nc1c(C(=O)Nc2ccccc2)sc2nc3c(cc12)CN(Cc1ccccc1)CC3 reported="> 100 µM"

State the recorded TGI for every item in the following list.
1. Cc1cc(C)c(NC(=O)c2sc3nc4c(cc3c2N)CN(Cc2ccccc2)CC4)c(C)c1
2. CCc1cccc(C)c1NC(=O)c1sc2nc3c(cc2c1N)C(=O)CCC3

Result ::
1: 16 µM; 2: > 100 µM

----------
# System: MDA-MB-435
# Protocol description: Growth inhibition of human MDA-MB-435 cells assessed as cell growth at 10 uM incubated for 48 hrs by sulforhodamine B assay relative to control
# Assay type: functional
# Assay conditions: read-out: Activity
Note to self: values exactly at 70% are t. So growth at 10 µM at or above 70% is t, below is f.

Before answering, review these 4 worked examples.
smiles_notation=CC(=O)c1cccc(NC(=O)c2sc3nc4c(cc3c2N)C(=O)CCC4)c1 qualitative_label=f
smiles_notation=Nc1c(C(=O)Nc2ccccc2)sc2nc3c(cc12)CN(Cc1ccccc1)CC3 qualitative_label=f
smiles_notation=Cc1cc(C)c(NC(=O)c2sc3nc4c(cc3c2N)CN(Cc2ccccc2)CC4)c(C)c1 qualitative_label=f
smiles_notation=CC(C)N1CCc2nc3sc(C(=O)Nc4ccccc4)c(N)c3cc2C1 qualitative_label=t

Query :: growth at 10 µM >= 70% for `CC(=O)c1ccc2c(N)c(C(=O)Nc3ccccc3)sc2n1` ?
Result :: t

----------
Task for the reader: assign each of the following compounds its reported growth at 100 µM.
# System: A549
# Protocol description: Growth inhibition of human A549/ATCC cells assessed as cell growth at 100 uM incubated for 48 hrs by sulforhodamine B assay relative to control
# Assay type: functional
# Assay conditions: read-out: Activity
Give bare numbers, in %.

smiles_notation=Cc1cc(C)c(NC(=O)c2sc3nc4c(cc3c2N)CN(Cc2ccccc2)CC4)c(C)c1 reported=13
smiles_notation=CN1CCc2nc3sc(C(N)=O)c(N)c3c(-c3cccs3)c2C1 reported=9
smiles_notation=Cc1ccc(NC(=O)c2sc3nc4c(cc3c2N)C(=O)CCC4)cc1C reported=13
smiles_notation=COc1cccc(NC(=O)c2sc3nc4c(cc3c2N)CN(Cc2ccccc2)CC4)c1 reported=-8

Let's switch to this compound now.
Sample `CCc1cccc(C)c1NC(=O)c1sc2nc3c(cc2c1N)C(=O)CCC3` , system: A549. Its growth at 100 µM is 6

----------
# Test system: SF-268
# Protocol description: Growth inhibition of human SF-268 cells assessed as cell growth at 100 uM incubated for 48 hrs by sulforhodamine B assay relative to control
# Format: functional
# Assay conditions: read-out: Activity
Please go through the items and note down their growth at 100 µM.
One number for each entry, in %.

smiles_notation=CN1CCc2nc3sc(C(N)=O)c(N)c3c(-c3cccs3)c2C1 reported=2
smiles_notation=CCc1ccccc1NC(=O)c1sc2nc3c(cc2c1N)C(=O)CCC3 reported=12
smiles_notation=CCc1cccc(C)c1NC(=O)c1sc2nc3c(cc2c1N)C(=O)CCC3 reported=5

Quick batch: growth at 100 µM for everything below.
1. Cc1ccc(NC(=O)c2sc3nc4c(cc3c2N)C(=O)CCC4)cc1C
2. Cc1cc(C)c(NC(=O)c2sc3nc4c(cc3c2N)CN(Cc2ccccc2)CC4)c(C)c1
3. Cc1cccc(NC(=O)c2sc3nc4c(cc3c2N)C(=O)CCC4)c1
4. COc1cccc(NC(=O)c2sc3nc4c(cc3c2N)CN(Cc2ccccc2)CC4)c1
5. Nc1c(C(=O)Nc2ccccc2)sc2nc3c(cc12)CN(Cc1ccccc1)CC3

Result ::
[14, -10, -12, -40, 9]

----------
# System: M14
# Protocol description: Growth inhibition of human M14 cells incubated for 48 hrs by sulforhodamine B assay
# Assay type: functional
Quantity: TGI (µM)
Give bare numbers, in µM.

These solved cases illustrate the format of a correct answer.
smiles_notation=CCc1cccc(C)c1NC(=O)c1sc2nc3c(cc2c1N)C(=O)CCC3 unit_descriptor=µM reported=19.5
smiles_notation=CN1CCc2nc3sc(C(N)=O)c(N)c3c(-c3cccs3)c2C1 unit_descriptor=µM reported=19.4
smiles_notation=COc1cccc(NC(=O)c2sc3nc4c(cc3c2N)CN(Cc2ccccc2)CC4)c1 unit_descriptor=µM reported=86.8

The molecule `Cc1cc(C)c(NC(=O)c2sc3nc4c(cc3c2N)CN(Cc2ccccc2)CC4)c(C)c1` showed TGI equal to 31.5
